# Target under test: UniProt:P06213
# Sequence (P06213 28-758 limits assumed): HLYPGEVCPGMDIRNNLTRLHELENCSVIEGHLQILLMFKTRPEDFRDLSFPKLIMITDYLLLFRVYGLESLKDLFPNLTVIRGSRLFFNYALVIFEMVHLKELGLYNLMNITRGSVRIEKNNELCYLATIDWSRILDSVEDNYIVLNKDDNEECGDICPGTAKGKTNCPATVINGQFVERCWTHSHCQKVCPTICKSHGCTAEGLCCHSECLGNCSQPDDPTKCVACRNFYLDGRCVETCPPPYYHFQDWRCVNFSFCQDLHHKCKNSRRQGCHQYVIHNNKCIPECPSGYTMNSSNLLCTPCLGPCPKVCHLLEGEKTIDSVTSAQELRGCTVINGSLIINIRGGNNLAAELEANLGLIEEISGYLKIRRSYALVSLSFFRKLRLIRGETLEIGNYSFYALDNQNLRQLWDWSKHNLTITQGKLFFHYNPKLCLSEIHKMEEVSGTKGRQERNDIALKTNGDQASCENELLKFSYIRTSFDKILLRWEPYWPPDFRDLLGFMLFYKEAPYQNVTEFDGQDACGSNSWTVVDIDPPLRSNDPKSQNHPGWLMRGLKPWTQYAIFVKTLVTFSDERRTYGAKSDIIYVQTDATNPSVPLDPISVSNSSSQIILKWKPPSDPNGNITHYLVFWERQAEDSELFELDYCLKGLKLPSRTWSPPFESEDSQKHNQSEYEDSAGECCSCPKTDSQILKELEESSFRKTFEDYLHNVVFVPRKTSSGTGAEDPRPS
# Sequence (P06213 763-1382 limits assumed): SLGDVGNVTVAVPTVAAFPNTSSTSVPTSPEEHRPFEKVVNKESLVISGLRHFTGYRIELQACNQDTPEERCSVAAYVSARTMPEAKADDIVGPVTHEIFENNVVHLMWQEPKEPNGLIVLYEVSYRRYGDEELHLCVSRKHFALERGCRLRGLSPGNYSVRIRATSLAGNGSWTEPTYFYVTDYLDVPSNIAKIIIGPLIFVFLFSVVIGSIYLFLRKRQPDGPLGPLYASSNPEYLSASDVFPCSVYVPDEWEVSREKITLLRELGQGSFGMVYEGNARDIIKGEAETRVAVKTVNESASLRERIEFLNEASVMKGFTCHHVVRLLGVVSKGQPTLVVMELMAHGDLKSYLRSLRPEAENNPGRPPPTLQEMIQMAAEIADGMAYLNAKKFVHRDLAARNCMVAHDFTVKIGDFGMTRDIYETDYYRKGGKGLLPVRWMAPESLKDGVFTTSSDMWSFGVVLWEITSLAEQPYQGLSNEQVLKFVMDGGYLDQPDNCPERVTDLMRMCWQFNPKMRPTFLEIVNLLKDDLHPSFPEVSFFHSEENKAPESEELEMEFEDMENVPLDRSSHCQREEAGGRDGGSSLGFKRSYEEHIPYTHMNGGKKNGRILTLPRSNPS
# Assay explanation: Inhibition of INSR (unknown origin) at 10 uM
Property measured: inhibition (%)
Reply numerically in %, unit not repeated.

Ask | Provide UniProt:P06213 inhibition reading for Cn1c(=O)c(Oc2ccc(F)cc2F)cc2cnc(Nc3ccc(N4CCC(O)CC4)cc3)nc21 .
Reply | 8

Ask | Would you please give the reported inhibition of CN1CCN(c2ccc(Nc3ncc4cc(Oc5c(Cl)cccc5Cl)c(=O)n(C)c4n3)cc2)CC1 with UniProt:P06213?
Reply | 0

Ask | Report the value of inhibition obtained on UniProt:P06213 for Cn1c(=O)c(Oc2ccc(F)cc2F)cc2cnc(NCCc3ccccn3)nc21 .
Reply | 2

Ask | Tell me inhibition of Cn1c(=O)c(Oc2ccc(F)cc2F)cc2cnc(NC3CCN(S(C)(=O)=O)CC3)nc21 when tested on UniProt:P06213.
Reply | 2

Ask | Please look at Cn1c(=O)c(Oc2ccc(F)cc2F)cc2cnc(Nc3ccc(N4CCCCC4)cc3)nc21 and tell me its recorded inhibition on UniProt:P06213.
Reply | 5

Ask | Give inhibition for this entry on UniProt:P06213: CN(C)CCNc1ncc2cc(Oc3ccc(F)cc3F)c(=O)n(C)c2n1
Reply | 0

Ask | Enter recorded inhibition with UniProt:P06213 for CN1CCN(c2ccc(Nc3ncc4cc(Oc5ccc(F)cc5F)c(=O)n(C)c4n3)cc2)CC1 here.
Reply | 5

Ask | For UniProt:P06213, give the measured inhibition of the entry Cn1c(=O)c(Oc2c(Cl)cccc2Cl)cc2cnc(NC3CCOCC3)nc21
Reply | 2

Ask | Report value only: inhibition, UniProt:P06213, CN1CCN(CCCNc2ncc3cc(Oc4ccc(F)cc4F)c(=O)n(C)c3n2)CC1
Reply | 2
